# System: SF-539 CNS
# EXPERIMENT DESCRIPTION: NCI-60 one-dose screen, 48 h
# RUN CONDITIONS: 10 µM unless noted
Compounds without any hit were thinned out: in the full panel of roughly 83,000, 20% have a hit. Calls of active or inactive are those of the source. Rule for the calls: active = growth percent below 10; inactive = the rest.
Possible outcomes: YES = active, NO = inactive

>  <MOLECULE>
CSc1nc(-c2ccc(F)cc2)c(C#N)c(N2CCOCC2)n1

>  <ASSIGNED CATEGORY>
NO

$$$$
>  <MOLECULE>
COc1cc2c(cc1OC)C(Sc1ccc(Cl)cc1)c1c(nc(N)c(C#N)c1N)O2 (stereo not drawn)

>  <ASSIGNED CATEGORY>
YES

$$$$
>  <MOLECULE>
COc1cccc(C(=O)OCCn2nc3c4c(cccc42)C(=O)c2ccccc2-3)c1O

>  <ASSIGNED CATEGORY>
YES

$$$$
>  <MOLECULE>
Cc1ccc(C2=N[C@H]3CCC[C@@H]3N(c3ccccc3)C(C(Cl)Cl)=N2)cc1

>  <ASSIGNED CATEGORY>
NO

$$$$
>  <MOLECULE>
COc1cc(NCC(=O)Nc2cc(Nc3ccc(C)cc3)ncn2)c(Cl)c(OC)c1Cl

>  <ASSIGNED CATEGORY>
NO

$$$$
>  <MOLECULE>
O=C(Nc1ccc(S(=O)(=O)NC2CCCCCC2)cc1)C(c1ccccc1)S(=O)(=O)c1ccc(F)cc1 (stereo not drawn)

>  <ASSIGNED CATEGORY>
YES

$$$$
>  <MOLECULE>
C=C1C(=O)O[C@H]2[C@H]1CC/C(COC(=O)Nc1nc3ccccc3[nH]1)=C\CC[C@@]1(C)O[C@@H]21

>  <ASSIGNED CATEGORY>
NO

$$$$
>  <MOLECULE>
CN1CCN(CC#CCOC(=O)CNC(=O)[C@]23CCC(C)(C)C[C@H]2C2=CC[C@@H]4[C@@]5(C)CC[C@H](O)C(C)(C)[C@@H]5CC[C@@]4(C)[C@]2(C)CC3)CC1

>  <ASSIGNED CATEGORY>
NO

$$$$

###

# Test system: CCRF-CEM leukemia
# EXPERIMENT DESCRIPTION: NCI-60 one-dose screen, 48 h
# RUN CONDITIONS: 10 µM unless noted
This is part of a sample that, as a whole, favours compounds with a hit. Of some 83,000 tested, about 20% had one in any assay. Activity calls are given as the source filed them. The calls were made as follows: active = growth percent below 10; inactive = the rest.
Possible outcomes: 1 (active), -1 (inactive)

>  <COMPOUND>
O=C(O)C(C(=O)O)c1cccc2ccccc12

>  <TESTED SYSTEM>
CCRF-CEM leukemia

>  <ASSIGNED CATEGORY>
-1

$$$$
>  <COMPOUND>
NC(=N\N=C\c1ccccc1O)/C(N)=N/N=C/c1ccccc1O

>  <TESTED SYSTEM>
CCRF-CEM leukemia

>  <ASSIGNED CATEGORY>
-1

$$$$
>  <COMPOUND>
CCSc1nc(Cl)c(C#N)c(-c2ccc(F)cc2)n1

>  <TESTED SYSTEM>
CCRF-CEM leukemia

>  <ASSIGNED CATEGORY>
-1

$$$$
>  <COMPOUND>
N#CCNc1ccc(C(=O)O)cc1

>  <TESTED SYSTEM>
CCRF-CEM leukemia

>  <ASSIGNED CATEGORY>
-1

$$$$
>  <COMPOUND>
CN1CCN(CC#CCOC(=O)CNC(=O)[C@]23CCC(C)(C)C[C@H]2C2=CC[C@@H]4[C@@]5(C)CC[C@H](O)C(C)(C)[C@@H]5CC[C@@]4(C)[C@]2(C)CC3)CC1

>  <TESTED SYSTEM>
CCRF-CEM leukemia

>  <ASSIGNED CATEGORY>
-1

$$$$
>  <COMPOUND>
COc1ccc(C(C)c2cc(OC)c(OC)c(OC)c2)cc1 (stereo not given)

>  <TESTED SYSTEM>
CCRF-CEM leukemia

>  <ASSIGNED CATEGORY>
-1

$$$$
>  <COMPOUND>
Cc1nc(C)c(C)nc1C

>  <TESTED SYSTEM>
CCRF-CEM leukemia

>  <ASSIGNED CATEGORY>
-1

$$$$
>  <COMPOUND>
COc1cc(NC(=O)Nc2cnc(Nc3ccc(N4CCOCC4)cc3)nc2Oc2ccc(C(F)(F)F)cc2)cc(OC)c1

>  <TESTED SYSTEM>
CCRF-CEM leukemia

>  <ASSIGNED CATEGORY>
-1

$$$$
>  <COMPOUND>
CCc1n(Cc2ccc3ccccc3c2)c2ccccc2[n+]1Cc1ccc2ccccc2c1

>  <TESTED SYSTEM>
CCRF-CEM leukemia

>  <ASSIGNED CATEGORY>
-1

$$$$
>  <COMPOUND>
Nc1c(C(=O)Nc2ccccn2)sc2nc3c(cc12)C(=O)CCC3

>  <TESTED SYSTEM>
CCRF-CEM leukemia

>  <ASSIGNED CATEGORY>
-1

$$$$
>  <COMPOUND>
COC(=O)c1nc(-c2ccccc2)oc1S(=O)(=O)n1nc(-c2ccccc2)cc1N

>  <TESTED SYSTEM>
CCRF-CEM leukemia

>  <ASSIGNED CATEGORY>
-1

$$$$
>  <COMPOUND>
c1ccc(Sc2ncccn2)nc1

>  <TESTED SYSTEM>
CCRF-CEM leukemia

>  <ASSIGNED CATEGORY>
-1

$$$$
>  <COMPOUND>
COc1ccccc1Nc1nnc(-c2ccc(Cl)cc2)o1

>  <TESTED SYSTEM>
CCRF-CEM leukemia

>  <ASSIGNED CATEGORY>
-1

$$$$
>  <COMPOUND>
COc1ccc(-c2nnc(N3CCN(C(=O)CN4CCN(c5ccc(OC)cc5)CC4)CC3)nc2-c2ccc(OC)cc2)cc1

>  <TESTED SYSTEM>
CCRF-CEM leukemia

>  <ASSIGNED CATEGORY>
1

$$$$
>  <COMPOUND>
CCO/C=N/S(=O)(=O)c1cc2c(cc1Cl)NC=NS2(=O)=O

>  <TESTED SYSTEM>
CCRF-CEM leukemia

>  <ASSIGNED CATEGORY>
-1

$$$$
>  <COMPOUND>
COc1cc(/C=C/C(=O)/C=C/c2cc3ccc(Cl)cc3n(Cc3ccccc3)c2=O)ccc1O

>  <TESTED SYSTEM>
CCRF-CEM leukemia

>  <ASSIGNED CATEGORY>
1

$$$$
>  <COMPOUND>
O=c1c2ccccc2oc2ccc(OCCCCCN3CCCCCC3)cc12

>  <TESTED SYSTEM>
CCRF-CEM leukemia

>  <ASSIGNED CATEGORY>
-1

$$$$
>  <COMPOUND>
Nc1c(C(=O)Nc2cccc3ccccc23)sc2nc3c(cc12)CCCCC3

>  <TESTED SYSTEM>
CCRF-CEM leukemia

>  <ASSIGNED CATEGORY>
1

$$$$
>  <COMPOUND>
NCCCn1c2c(c3cc(-c4ccn[nH]4)ccc3c1=O)C(=O)c1ccccc1-2

>  <TESTED SYSTEM>
CCRF-CEM leukemia

>  <ASSIGNED CATEGORY>
-1

$$$$
>  <COMPOUND>
O=C1NN(c2ccccc2)C(c2ccc(Cl)cc2)N2CCC[C@H]12 (stereo not given in full)

>  <TESTED SYSTEM>
CCRF-CEM leukemia

>  <ASSIGNED CATEGORY>
-1

$$$$
>  <COMPOUND>
COc1cc(C(=O)N2CCN(c3ccccc3OC)CC2)c(NC(=O)c2cnccn2)cc1OCc1ccccc1

>  <TESTED SYSTEM>
CCRF-CEM leukemia

>  <ASSIGNED CATEGORY>
1

$$$$
>  <COMPOUND>
Cc1ccc(CS/C(=C\c2ccc([N+](=O)[O-])cc2)C(=O)c2ccc(F)cc2)cc1

>  <TESTED SYSTEM>
CCRF-CEM leukemia

>  <ASSIGNED CATEGORY>
1

$$$$
>  <COMPOUND>
Nn1c(SCC(=O)Nc2ccc(Cl)cc2)nnc1-c1cc(F)c(Cl)cc1Cl

>  <TESTED SYSTEM>
CCRF-CEM leukemia

>  <ASSIGNED CATEGORY>
-1

$$$$
>  <COMPOUND>
Nc1cccc(C(=O)Nc2ccc3c(O)c(N=Nc4ccc(N=Nc5ccc(S(=O)(=O)O)cc5)cc4)c(S(=O)(=O)O)cc3c2)c1

>  <TESTED SYSTEM>
CCRF-CEM leukemia

>  <ASSIGNED CATEGORY>
-1

$$$$
>  <COMPOUND>
CCC[S@@](=O)c1ccc2nc(NC(=O)OC)[nH]c2c1

>  <TESTED SYSTEM>
CCRF-CEM leukemia

>  <ASSIGNED CATEGORY>
-1

$$$$
>  <COMPOUND>
C=C(C)[C@@H]1CC[C@]2(C(=O)O)CC[C@]3(C)[C@H](CC[C@@H]4[C@@]5(C)C[C@@H](CC#Cc6ccccc6)C(=O)C(C)(C)[C@@H]5CC[C@]43C)[C@@H]12

>  <TESTED SYSTEM>
CCRF-CEM leukemia

>  <ASSIGNED CATEGORY>
-1

$$$$
>  <COMPOUND>
COc1cccc2c1-c1ccccc1C2=O

>  <TESTED SYSTEM>
CCRF-CEM leukemia

>  <ASSIGNED CATEGORY>
1

$$$$
>  <COMPOUND>
COc1cc(C2=NN(c3ccccc3)C(c3cccc(Nc4ccnc5cc(C(F)(F)F)ccc45)c3)C2)cc(OC)c1OC (stereo not given)

>  <TESTED SYSTEM>
CCRF-CEM leukemia

>  <ASSIGNED CATEGORY>
-1

$$$$
>  <COMPOUND>
CC(/C=C/c1ccccc1)=N/NC(=O)c1ccncc1

>  <TESTED SYSTEM>
CCRF-CEM leukemia

>  <ASSIGNED CATEGORY>
-1

$$$$
>  <COMPOUND>
COc1ccc(N(C)c2nc(Cl)nc3ccn(C)c23)cc1

>  <TESTED SYSTEM>
CCRF-CEM leukemia

>  <ASSIGNED CATEGORY>
1

$$$$
>  <COMPOUND>
Cc1[nH]c(N=Nc2ccccc2)nc1N=Nc1ccccc1

>  <TESTED SYSTEM>
CCRF-CEM leukemia

>  <ASSIGNED CATEGORY>
1

$$$$
>  <COMPOUND>
NC(=O)CN1C(=O)c2ccccc2C1=O

>  <TESTED SYSTEM>
CCRF-CEM leukemia

>  <ASSIGNED CATEGORY>
-1

$$$$
>  <COMPOUND>
COCCc1n(Cc2ccc3ccccc3c2)c2ccccc2[n+]1Cc1ccc2ccccc2c1

>  <TESTED SYSTEM>
CCRF-CEM leukemia

>  <ASSIGNED CATEGORY>
1

$$$$
>  <COMPOUND>
COc1ccc2c(c1)OC13Oc4cc(OC)ccc4C=C1CCCCC3=C2

>  <TESTED SYSTEM>
CCRF-CEM leukemia

>  <ASSIGNED CATEGORY>
-1

$$$$
>  <COMPOUND>
CN1CCN(S(=O)(=O)O[C@@H]2C(=O)N(c3cc4c5ccccc5ccc4c4ccccc34)[C@H]2c2ccc(F)cn2)CC1

>  <TESTED SYSTEM>
CCRF-CEM leukemia

>  <ASSIGNED CATEGORY>
-1

$$$$
>  <COMPOUND>
O=C(CCc1nnc2sc(OCc3ccccc3)nn12)c1nc2ccc([N+](=O)[O-])cc2[nH]1

>  <TESTED SYSTEM>
CCRF-CEM leukemia

>  <ASSIGNED CATEGORY>
-1

$$$$
>  <COMPOUND>
Cc1nc2sc(C(=O)Nc3ccccc3Cl)c(N)c2cc1C(C)O (stereo not given)

>  <TESTED SYSTEM>
CCRF-CEM leukemia

>  <ASSIGNED CATEGORY>
-1

$$$$
>  <COMPOUND>
C=CCn1c(SCC(=O)Nc2ccc(C(=O)/C=C/c3cc(OC)c(OC)c(OC)c3)cc2)nnc1-c1ccccc1

>  <TESTED SYSTEM>
CCRF-CEM leukemia

>  <ASSIGNED CATEGORY>
-1

$$$$
>  <COMPOUND>
C=CCn1c(SCC(=O)Nc2ccc(C(=O)/C=C/c3ccc(Cl)cc3)cc2)nnc1-c1cc(OC)c(OC)c(OC)c1

>  <TESTED SYSTEM>
CCRF-CEM leukemia

>  <ASSIGNED CATEGORY>
-1

$$$$
>  <COMPOUND>
Cc1c(Br)cccc1NC(=O)c1sc2nc3c(cc2c1N)CN(Cc1ccccc1)CC3

>  <TESTED SYSTEM>
CCRF-CEM leukemia

>  <ASSIGNED CATEGORY>
1

$$$$
